Provide the reported koff of each item.
# STUDY_SYSTEM: T1, human LAP-TGFB1 Fc fusion (human)
# T1 construct: also called human LAP-TGFβ1-Fc; human LAP-TGFβ-Fc isoform 1
# T1 sequence (chain, as listed by the source limits assumed): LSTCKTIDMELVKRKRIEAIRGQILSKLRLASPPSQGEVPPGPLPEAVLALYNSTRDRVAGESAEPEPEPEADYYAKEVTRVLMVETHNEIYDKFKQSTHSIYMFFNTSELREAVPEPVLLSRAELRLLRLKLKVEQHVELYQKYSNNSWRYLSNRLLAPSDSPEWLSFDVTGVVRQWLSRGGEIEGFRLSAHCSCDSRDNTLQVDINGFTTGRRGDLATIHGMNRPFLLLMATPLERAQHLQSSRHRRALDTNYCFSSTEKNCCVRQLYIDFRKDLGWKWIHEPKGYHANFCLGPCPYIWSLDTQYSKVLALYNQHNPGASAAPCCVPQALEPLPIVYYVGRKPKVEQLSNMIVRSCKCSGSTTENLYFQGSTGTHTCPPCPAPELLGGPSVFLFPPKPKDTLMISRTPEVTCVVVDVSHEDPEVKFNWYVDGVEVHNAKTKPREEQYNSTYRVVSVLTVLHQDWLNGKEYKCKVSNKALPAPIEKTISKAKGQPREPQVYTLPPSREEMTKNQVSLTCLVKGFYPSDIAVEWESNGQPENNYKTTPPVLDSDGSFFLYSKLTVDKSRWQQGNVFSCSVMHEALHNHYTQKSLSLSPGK
# TEST_DETAILS: SPR, antigen-Fc captured, Fab analyte
Give bare numbers, in s⁻¹.

Input 72BJN (Fab, V domains shown, also called VH S31Q W33D W99Y / VL T30Y R53I (72BJN)) VH: EVQLVQSGAEVKKPGASVKVSCKASGYTFTQYDMHWVRQAPGQGLEWMGRIDPQSGGIKYAQKFQGRATLTVDTSTSTAYMELSRLRSDDTAVYYCARYDYGGYFDVWGQGTLVTVSS VL: DIQMTQSPSSLSASVGDRVTITCRASQDIYNYLNWYQQKPGKAVKLLIYYTSILHSGVPSRFSGSGSGTDYTLTISSLQPEDFATYFCQQGDTLPWTFGQGTKLEIKR , output reported koff.
0.00298

For every item in the list below, what is its measured koff?
1. 65BJN (Fab, V domains shown, also called VH W33D M34L W99Y Y101Q / VL T30Y N31Y (65BJN)) VH: EVQLVQSGAEVKKPGASVKVSCKASGYTFTSYDLHWVRQAPGQGLEWMGRIDPQSGGIKYAQKFQGRATLTVDTSTSTAYMELSRLRSDDTAVYYCARYDQGGYFDVWGQGTLVTVSS VL: DIQMTQSPSSLSASVGDRVTITCRASQDIYYYLNWYQQKPGKAVKLLIYYTSRLHSGVPSRFSGSGSGTDYTLTISSLQPEDFATYFCQQGDTLPWTFGQGTKLEIKR
2. 79BJN (Fab, V domains shown, also called VH W33D S55D S57D I58V / VL T30Y R53G T93E (79BJN)) VH: EVQLVQSGAEVKKPGASVKVSCKASGYTFTSYDMHWVRQAPGQGLEWMGRIDPQDGDVKYAQKFQGRATLTVDTSTSTAYMELSRLRSDDTAVYYCARWDYGGYFDVWGQGTLVTVSS VL: DIQMTQSPSSLSASVGDRVTITCRASQDIYNYLNWYQQKPGKAVKLLIYYTSGLHSGVPSRFSGSGSGTDYTLTISSLQPEDFATYFCQQGDELPWTFGQGTKLEIKR

[0.0238, 0.000128]

Ref: patent US20230272056A1
